The reported measurements were obtained from ChEMBL document CHEMBL1126556.

Please go through the items and note down their inhibition.
# tested-target: Thromboxane-A synthase (Rattus norvegicus) (UniProt P49430)
# Sequence (P49430 whole entry): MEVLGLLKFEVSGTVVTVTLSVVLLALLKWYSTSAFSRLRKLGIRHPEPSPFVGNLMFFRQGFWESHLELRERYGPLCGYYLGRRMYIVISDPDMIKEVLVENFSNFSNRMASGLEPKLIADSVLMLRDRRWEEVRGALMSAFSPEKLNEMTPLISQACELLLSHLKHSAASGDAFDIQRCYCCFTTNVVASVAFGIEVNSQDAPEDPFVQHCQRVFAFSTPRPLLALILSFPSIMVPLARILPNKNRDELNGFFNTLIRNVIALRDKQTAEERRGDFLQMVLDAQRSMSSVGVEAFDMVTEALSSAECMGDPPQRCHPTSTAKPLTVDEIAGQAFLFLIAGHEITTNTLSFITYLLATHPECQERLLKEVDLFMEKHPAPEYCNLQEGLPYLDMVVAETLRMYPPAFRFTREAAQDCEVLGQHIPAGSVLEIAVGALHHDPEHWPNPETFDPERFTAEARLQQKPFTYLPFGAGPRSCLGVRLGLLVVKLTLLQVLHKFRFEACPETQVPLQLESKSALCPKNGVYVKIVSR
# assay-text: Tested for inhibition of thromboxane A2 (TXA2) production in rat serum by ex vivo assay after peroral dose of 30 mg/kg
# Assay type: functional, organism-based
# Design: dose 30 mg/kg
Numbers only, in %.

# example entries with known answers
[[record]]
chemical_structure = "O=c1c2ccccc2c(Cc2ccccc2)nn1CCn1ccnc1"
readout = "inhibition"
reading = -5

[[record]]
chemical_structure = "CCOc1ccc(-c2nn(CCn3ccnc3)c(=O)c3ccccc23)cc1"
readout = "inhibition"
reading = 68

[[record]]
chemical_structure = "COc1ccc(-c2nn(CCn3ccnc3)c(=O)c3ccccc23)cc1F"
readout = "inhibition"
reading = 60

[[record]]
chemical_structure = "COc1ccc(-c2nn(CCn3ccnc3)c(=O)c3ccccc23)cc1OC"
readout = "inhibition"
reading = 32

[[record]]
chemical_structure = "O=c1c2ccccc2c(Cc2ccc(Cl)cc2)nn1CCn1ccnc1"
readout = "inhibition"
reading = 40

[[record]]
chemical_structure = "O=c1c2ccccc2c(-c2ccccc2)nn1CCn1ccnc1"
readout = "inhibition"
reading = 0

[[record]]
chemical_structure = "Cc1ccc(-c2nn(CCn3ccnc3)c(=O)c3ccccc23)s1"
readout = "inhibition"
reading = 0

[[record]]
chemical_structure = "Cc1ccc(-c2nn(CCn3ccnc3)c(=O)c3ccccc23)cc1"
readout = "inhibition"
reading = 0


Below is a list of compounds. For each, state its recorded inhibition.
1. O=c1c2ccccc2c(C2CCCCC2)nn1CCn1ccnc1
2. O=c1c2ccccc2c(-c2ccc(F)cc2)nn1CCn1ccnc1
3. CC(C)c1ccc(-c2nn(CCn3ccnc3)c(=O)c3ccccc23)cc1

Result string:
1. 28
2. 46
3. 52
